For each record, write down the corresponding relative viability.
# System: NCI-H1650
# Assay Details: relative viability (nuclei count vs DMSO), 5 days (fraction); higher = more cells survive
# Recorded Conditions: first compound 0.001 µM
Format: numeric value only, no unit, no commentary.

Recorded relative viability (molecule Cc1cn(-c2cc(NC(=O)c3ccc(C)c(Nc4nccc(-c5cccnc5)n4)c3)cc(C(F)(F)F)c2)cn1 [Nilotinib] + COc1cc2c(Oc3ccc(NC(=O)C4(C(=O)Nc5ccc(F)cc5)CC4)cc3F)ccnc2cc1OCCCN1CCOCC1 [Foretinib] (partner 0.25 µM) ): 1.09

Recorded relative viability (molecule Cc1cn(-c2cc(NC(=O)c3ccc(C)c(Nc4nccc(-c5cccnc5)n4)c3)cc(C(F)(F)F)c2)cn1 [Nilotinib] + Cc1cc(Nc2cc(N3CCN(C)CC3)nc(Sc3ccc(NC(=O)C4CC4)cc3)n2)n[nH]1 [Tozasertib] (partner 0.1 µM) ): 0.329

Recorded relative viability (molecule Cc1cn(-c2cc(NC(=O)c3ccc(C)c(Nc4nccc(-c5cccnc5)n4)c3)cc(C(F)(F)F)c2)cn1 [Nilotinib] + CS(=O)(=O)CCNCc1ccc(-c2ccc3ncnc(Nc4ccc(OCc5cccc(F)c5)c(Cl)c4)c3c2)o1 [Lapatinib] (partner 2 µM) ): 0.851
